# ASSAY_TARGET: Calmodulin-1 (Homo sapiens) (UniProt P0DP23)
# ASSAY: small molecules binding calmodulin-1 with EGTA – biochemical, small-molecule microarray, Cy5-labelled CALM1, profiling panel (AID 1111);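 note: labelled calmodulin applied in Tris saline Tween buffer holding calcium plus EGTA and DTT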
# PARTICULARS: Cy5-CALM1 binding fluorescence, higher = more signal
OBSERVATION_TYPE: composite z-score
Reply briefly: the number, and no unit.

Task item: # query: composite z-score of entry `C=CCN1Cc2ccccc2[C@H]2OC(c3ccc(OCCCO)cc3)=N[C@@]2(CCS(=O)(=O)c2ccccc2)C1=O`
Reply: 1.64

Further cases:
Task item: Query (compound): `COC(=O)C(CC#Cc1ccc2c(c1)[C@]1(C(=O)N2)[C@H](c2ccc(OCCO)cc2)N2[C@H](c3ccccc3)[C@H](c3ccccc3)OC(=O)[C@H]2[C@@H]1C(=O)N1CCCCCCC1)C(=O)OC` ; field requested: composite z-score
Reply: 2.73

Task item: composite z-score for `CN(C)CCCNC(=O)[C@@]1(C)c2ccccc2C(=O)N(Cc2ccc(OC(F)(F)F)cc2)[C@H]1c1ccc(CO)cc1` ?
Reply: -0.415

Task item: Fill in the blank: the reported composite z-score of COc1cc(OC)c(C(O)C2C=CC3C(=O)N(c4ccccc4)C(=O)C3N2Nc2ccc(C(C)C)cc2)cc1Br (configuration not stated) is ____.
Reply: 1.34

* * *

# Tested on: Sam68 (KHDRBS1)
# ASSAY: compounds binding KHDRBS1 protein – biochemical, small-molecule microarray, 635 nm fluorescence, primary screen (AID 1125);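 note: score merges 667 nm channel intensity with signal to noise over triplicate slides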
# PARTICULARS: higher = more signal
// reported composite z-score per item
Enter a number only.

# count of solved cases: 3
Task item: composite z-score lookup needed for O=C1NC(=O)C2C1C=CC(C(O)c1ccc([N+](=O)[O-])cc1)N2Nc1ccccn1 (centres undefined) , thanks.
Reply: -0.413

Task item: Find the recorded composite z-score belonging to `C=C(COC)/C(=C/C[C@H](OC(C)=O)c1ccccc1OCCO)c1cc(C(=O)OC)ccc1OC` and report it.
Reply: 0.44

Task item: Please give the measured composite z-score for this compound: `C=C(CCCC)/C(=C/C[C@H](OC(C)=O)c1cccc(OCCO)c1)c1cnc2ccccc2c1`
Reply: 0.0549

Then there is this compound:
Task item: Which measured composite z-score value corresponds to `COC(=O)[C@@]1(Cc2ccc(F)cc2)[C@H]2c3cc(C(=O)N4CCCC4)n(Cc4cc(F)cc5c4OCOC5)c3C[C@H]2CN1C(=O)c1ccccc1` ?
Reply: -0.349

* * *

# ASSAY_TARGET: Calmodulin-1 (Homo sapiens)
# ASSAY: small molecules binding calmodulin-1 with EGTA – biochemical, small-molecule microarray, Cy5-labelled CALM1, profiling panel (AID 1111);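 note: labelled calmodulin applied in Tris saline Tween buffer holding calcium plus EGTA and DTT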
# PARTICULARS: Cy5-CALM1 binding fluorescence, higher = more signal
Classification field: condition met = composite z-score at or over 0.8; condition not met = composite z-score under 0.8.

Task item: Determine whether this compound has composite z-score no lower than 0.8: N#Cc1ccc(NN2C(C(O)C3CC=CCC3)C=CC3C(=O)N(c4ccccc4)C(=O)C32)cc1 (stereo unspecified)
Reply: condition not met

Task item: composite z-score >= 0.8 for `C=CCOC(=O)[C@H]1[C@@H]2C(=O)O[C@@H](c3ccccc3)[C@@H](c3ccccc3)N2[C@@H](c2ccc(OCCOC(=O)[C@@H]3C[C@@H]4C(=O)N[C@@H](CCCCNC(C)=O)C(=O)N4[C@@H]3c3cccc(OCCO)c3)cc2)[C@]12C(=O)Nc1ccccc12` ?
Reply: condition not met

Task item: Kindly determine if composite z-score recorded for `O=C1[C@H]2C=C(I)[C@H](C[C@@H]2OCCCCCCO)[C@@]12CO2` is above or exactly 0.8.
Reply: condition not met

Task item: Check if composite z-score >= 0.8 (inclusive). Item: `COC(=O)[C@@]1(Cc2ccc(OC)cc2)[C@H]2c3cc(C(=O)N4CCCC4)n(Cc4ccc(C(F)(F)F)nc4)c3C[C@H]2CN1C(=O)c1ccccc1`
Reply: condition not met

Task item: Does the compound [N-]=[N+]=Nc1ccccc1C[C@@]1(C(=O)NCC(O)CO)N=C(c2ccc(OCCCO)cc2)O[C@@H]1c1ccccc1 (stereo partly specified) have recorded composite z-score that is 0.8 or more?
Reply: condition not met

Let us examine a further case.
Task item: Is composite z-score for `COC(=O)[C@@]1(Cc2ccccc2)[C@H]2c3cc(C(=O)N4CCCC4)n(Cc4ccc(OC)c(OC)c4)c3C[C@H]2CN1C(=O)c1ccccc1` at or above 0.8?
Reply: condition met

* * *

# ASSAY_TARGET: Left-right determination factor 2 (Homo sapiens)
# ASSAY: small molecules binding LEFTY2 protein – biochemical, small-molecule microarray, 635 nm fluorescence scan, primary screen (AID 1110)
# PARTICULARS: higher = more signal
Measured composite z-score by item
Enter a number only.

Task item: Using the record for `O=C1c2ccccc2[C@@]2(Cc3ccccc3N(Cc3ccccc3)C2=O)[C@H](c2ccc(CO)cc2)N1Cc1ccccc1Cl` , report its composite z-score.
Reply: -0.44

Task item: Reported composite z-score for `Cc1ccc(F)cc1S(=O)(=O)N[C@H]1CCN(Cc2ccc(OC(C)C)cc2)C1` : what is it?
Reply: 0.379

Task item: // lookup composite z-score for `CN(C)CCCC[C@@H]1NC(=O)[C@@H]2C[C@H](C(=O)NCCCCCN)[C@H](c3cccc(OCCO)c3)N2C1=O`
Reply: 0.64

Task item: Which composite z-score reading was recorded for the compound NC(=O)N1C(=O)C2C(C1=O)C1C=C(CCCO)C2C(c2ccc(CN3CCCC3)cc2)N1Cc1sc2ccccc2c1Cl (stereo not drawn) ?
Reply: -0.292

Task item: # input compound: `CC(C)(C)OC(=O)CC[C@@]1(C(=O)NCCN2CCOCC2)N=C(c2ccc(OCCCO)cc2)O[C@@H]1c1ccccc1CN=[N+]=[N-]` ; wanted: its composite z-score
Reply: -0.345

Task item: Recorded composite z-score for `COC(=O)[C@@]1(Cc2ccccc2)[C@H]2c3cc(C(=O)N(C)C)n(CCO)c3C[C@H]2CN1C(=O)c1ccccc1` , please?
Reply: 0.145

Continuing:
Task item: Query: composite z-score; subject: COC(=O)C1(Cc2ccccc2)C=C2C(=C(C)C(=O)C2C)CN1 (stereo not drawn)
Reply: -0.479

Task item: Return reported composite z-score; argument: `Cc1ccc(S[C@]2(C(=O)NC3CC3)CC(=O)N(C(C)C)[C@@H]2c2ccc(CO)cc2I)cc1`
Reply: -0.792

* * *

# ASSAY: compound effects on hepatocellular carcinoma cell viability – HepG2, calcein-AM fluorescence, 48 h, basal, profiling panel (AID 1164); note: test concentration not given here
# PARTICULARS: higher = more signal
Response key: label 1 means z-score >= -0.2; label 0 means z-score < -0.2.

Task item: API: above_or_equal(metric=z-score, cutoff=-0.2) for item `CN(C)CCCNC(=O)[C@@]1(Cc2ccccc2I)c2ccccc2C(=O)N(C2CCCCC2)[C@H]1c1ccc(CO)cc1`
Reply: label 0

Task item: Check if z-score >= -0.2 (inclusive). Item: `CO[C@H]1O[C@H](CO)[C@@H](OC(=O)Nc2ccccc2)[C@H](OC(=O)Nc2ccccc2)[C@H]1OC(=O)Nc1ccccc1`
Reply: label 0

Task item: Please check the record `COC(=O)[C@@]1(Cc2ccccc2)[C@H]2c3cc(C(=O)N4CCCC4)n(Cc4ccc(OC)c(OC)c4)c3C[C@H]2CN1C(=O)c1ccccc1` and state if its z-score is at or above -0.2.
Reply: label 0

Now look at this one.
Task item: Say whether `Cc1ccc(N2C(=O)c3ccccc3[C@](C)(C(=O)NCCCN(C)C)[C@@H]2c2ccc(CO)cc2)nc1` shows z-score of -0.2 or more.
Reply: label 1

* * *

# ASSAY: forskolin-driven CRE-LacZ activity in PC12 – cell-based, CRE-LacZ reporter, forskolin-stimulated, primary screen (AID 1146);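 note: PC12 cells with 6xCRE LacZ reporter stimulated by forskolin 10 µM; beta-galactosidase reporter signal reflecting CREB driven transcription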
# PARTICULARS: luminescence, 4.5 h, higher = more signal, called active from +8 up or from −8 down
Catalogue of z-score readings, one per entry.
Answer with a bare number; do not write a unit.

Task item: Returns the measured z-score for the input compound. Input: `CC[C@@H]1C=C(C(=O)O)[C@H](c2ccc(OC)cc2)N1S(=O)(=O)c1ccc(C)cc1`
Reply: 0.0935

Task item: Find the recorded z-score belonging to CC(C)(C)N1CC=CC23O[C@@H]4C=CCOC(=O)[C@@H]4[C@H]2C(=O)N(CCO)[C@@H]3C1=O (stereo not given in full) and report it.
Reply: 1.07

Task item: Could you tell me which z-score is on file for `CC(C)NC(=O)[C@@]1(c2ccc([N+](=O)[O-])cc2)CC(=O)N(CC23CC4CC(CC(C4)C2)C3)[C@@H]1c1ccc(CO)cc1` ?
Reply: 0.795

Task item: Quick one: z-score of C=CCC(OC(C)=O)[C@@H]1[C@@H](N(Cc2ccc(-c3ccccc3)cc2)C(=O)c2cccc3ccccc23)c2cc(OCCCO)ccc2N1C(=O)Cc1ccc(OC)cc1 (stereo not given in full) ?
Reply: -0.117

Task item: Item under review: `CC(C)NC(=O)[C@@H]1c2ccccc2C(=O)N(Cc2ccccc2C(F)(F)F)[C@H]1c1ccc(CO)cc1` . Reported z-score?
Reply: 1.71

Task item: Given CCCc1cc2c(n1CCc1ccc(Cl)cc1)C(C)C1CN(C(=O)c3ccccc3)C(C)(C(=O)OC)C21 (stereo not given) , state its recorded z-score.
Reply: 4.57

These entries and their values trace back to PubChem BioAssay.
